# study.system: C-CFTR 1411-1480 (Homo sapiens, UniProt P13569)
# Sequence (P13569 1411-1480): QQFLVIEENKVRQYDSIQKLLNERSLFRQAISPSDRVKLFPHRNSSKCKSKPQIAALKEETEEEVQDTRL
# assay.summary: SPR
property: Kd
Answer with the number, then the unit.

What does the data say about its Kd? Entry: NHERF1 PDZ2-CT E353P 150-358 (protein) LRPRLCTMKKGPSGYGFNLHSDKSKPGQFIRSVDPDSPAEASGLRAQDRIVEVNGVCMEGKQHGDVVSAIRAGGDETKLLVVDRETDEFFKKCRVIPSQEHLNGPLPVPFTNGEIQKENSREALAEAALESPRPALVRSASSDTSEELNSQDSPPKQDSTAPSSTSSSDPILDFNISLAMAKERAHQKRSSKRAPQMDWSKKNPLFSNL 480 nM
